cytotoxicity at 70.5 h by entry:
# test-method-notes: Human HepG2 cell viability assay in 384 well format
# Format: toxicity, cell-based
# Parameters: dose 125 nL, time 70.5 hour; concentration not given beside the values
# settings: HepG2 cells, read-out: Inhibition
outcome-measure: cytotoxicity at 70.5 h (%)

{"compound": "CC(=O)c1cccc(NC(=O)COc2c(C)n(C)ccc2=O)c1", "outcome-measure": "cytotoxicity at 70.5 h", "reported-measurement": -7.44}
{"compound": "CC(C)c1nc(C2CCCN2C(=O)c2ccc(N(C)C)nn2)no1 (stereo not given)", "outcome-measure": "cytotoxicity at 70.5 h", "reported-measurement": 7.67}
{"compound": "CS(=O)(=O)NCc1noc2c1CN(C(=O)c1ccsc1)CC2", "outcome-measure": "cytotoxicity at 70.5 h", "reported-measurement": -7.43}
{"compound": "O=C(c1cccs1)N1CCc2c(nc(N3CCCC3)[nH]c2=O)C1", "outcome-measure": "cytotoxicity at 70.5 h", "reported-measurement": -0.974}
{"compound": "CCCc1nnsc1C(=O)NCC1CCN(c2ccccn2)CC1", "outcome-measure": "cytotoxicity at 70.5 h", "reported-measurement": -6.19}

----------
# test-method-notes: Human HepG2 cell viability assay in 384 well format
# Type: toxicity, cell-based
# Design: dose 125 nL, time 70.5 hour; concentration not given beside the values
# settings: HepG2 cells, read-out: Inhibition
cytotoxicity at 70.5 h by entry:
outcome-measure: cytotoxicity at 70.5 h (%)

{"compound": "CC(C)(C)C(=O)N1CCCc2c(cnn2-c2ccccc2)C1", "value-units": "%", "reported-measurement": 1.62}
{"compound": "Cc1ccc(NC(=O)C(C)N2CCCN(c3nccs3)CC2)c(C)c1 (centres undefined)", "value-units": "%", "reported-measurement": -7.1}
{"compound": "CC(C)(Oc1ccc(C(N)=O)cc1)C(=O)N(CCC#N)C1CC1", "value-units": "%", "reported-measurement": -1.36}
{"compound": "COc1ccc(CN2C[C@@H]3CN(Cc4ccncc4)C[C@@H]3C2=O)cc1", "value-units": "%", "reported-measurement": -8.45}
{"compound": "CCc1ccc(CN(C(=O)CCn2cc(S(N)(=O)=O)cn2)C2CC2)cc1", "value-units": "%", "reported-measurement": -2.81}
{"compound": "O=C(Nc1ccc(-n2cccn2)cc1)N1CCC(O)C1 (centres undefined)", "value-units": "%", "reported-measurement": 28.4}
{"compound": "Cc1cc(C(F)(F)F)nc(CCNC(C)Cn2cncn2)n1 (centres undefined)", "value-units": "%", "reported-measurement": -11.4}
{"compound": "COCCN1CC(C(=O)N(C)Cc2ccc(Cl)s2)CC1=O (centres undefined)", "value-units": "%", "reported-measurement": -10.5}
{"compound": "CCN(CCC(=O)OC)S(=O)(=O)c1cnc2c(c1)c(C)nn2C", "value-units": "%", "reported-measurement": -4.3}
{"compound": "O=C(Cn1cnc2sccc2c1=O)NCCCc1nnc2ccccn12", "value-units": "%", "reported-measurement": -17.5}
{"compound": "Cc1ccc2nc(C)cc(NCCNS(=O)(=O)c3cn(C)nc3C)c2c1", "value-units": "%", "reported-measurement": 0.534}
{"compound": "COCCCN(Cc1cnc(-c2cccs2)nc1)C1CCN(C)CC1", "value-units": "%", "reported-measurement": -12}
{"compound": "O=C(O)C1CCN(c2nc3c(-c4ccccc4F)csc3c(=O)[nH]2)CC1", "value-units": "%", "reported-measurement": -0.14}
{"compound": "Cn1c(CCN2CCN(c3ccc(O)cc3)CC2)nc2ccccc21", "value-units": "%", "reported-measurement": 14.6}
{"compound": "CN(CCc1nc2ccccc2c(=O)[nH]1)CCC(F)(F)F", "value-units": "%", "reported-measurement": -6.6}
{"compound": "CCN1CCN(CC(O)c2ccc(Br)cc2)CC1 (centres undefined)", "value-units": "%", "reported-measurement": -1.54}
{"compound": "Cc1cnn(CC2CN(Cc3nnc(-c4occc4C)o3)CCO2)c1 (centres undefined)", "value-units": "%", "reported-measurement": -18.4}
{"compound": "COc1ccc(CN(CC2CCCO2)c2nc3c(s2)c(C)nn3C)cc1 (centres undefined)", "value-units": "%", "reported-measurement": 41.8}
{"compound": "CC(NC(N)=O)C(=O)N(C)Cc1cccc(C(F)(F)F)c1 (centres undefined)", "value-units": "%", "reported-measurement": 10.7}

----------
# test-method-notes: Human HepG2 cell viability assay in 384 well format
# Format: toxicity, cell-based
# Design: dose 125 nL, time 70.5 hour; concentration not given beside the values
# settings: HepG2 cells, read-out: Inhibition
cytotoxicity at 70.5 h by entry:
outcome-measure: cytotoxicity at 70.5 h (%)

{"compound": "CC1CN(C(=O)c2cscn2)c2ccccc2S1 (configuration not stated)", "reported-measurement": 21}
{"compound": "CN(CCc1ccccn1)C(=O)Nc1cc(C(F)(F)F)c[nH]c1=O", "reported-measurement": 8.07}
{"compound": "O=C(NCc1ccncc1)N(Cc1ccc(F)cc1F)C1CC1", "reported-measurement": -5.41}
{"compound": "O=C(CCn1ncc2c(Cl)cccc21)NCCCO", "reported-measurement": -5.48}
{"compound": "c1csc(-c2noc(C3CNC3)n2)c1", "reported-measurement": -8.98}
{"compound": "CSc1ccc(-c2noc(CN(Cc3ccccc3)C(C)C)n2)cc1", "reported-measurement": -6.81}
{"compound": "O=C(N[C@@H]1CN(c2ncccn2)C[C@@H]2CCCO[C@@H]21)c1cccnc1", "reported-measurement": 7.96}
{"compound": "CNC(=O)N1CCC2(CC1)CC[C@@]1(C(=O)NC)CN(S(C)(=O)=O)C[C@@H]21", "reported-measurement": -0.00397}
{"compound": "O=C(CCn1cncn1)NCC1CCOC1 (configuration not stated)", "reported-measurement": -6.75}
{"compound": "Cc1ccc(CN[C@@H]2CO[C@H](CNS(=O)(=O)c3ccccc3)[C@H]2O)cc1", "reported-measurement": -0.953}
{"compound": "Cc1noc(C)c1CCCNC(=O)Nc1ccc2c(c1)CC(=O)N2", "reported-measurement": -8.94}
{"compound": "c1cnc(N2CCCC3(CCN(Cc4cccs4)C3)C2)nc1 (configuration not stated)", "reported-measurement": -6.41}
{"compound": "CCOc1ncccc1NC(=O)NC1CCN(S(C)(=O)=O)CC1", "reported-measurement": 20.6}
{"compound": "c1ccc(CN2CCC3(CC2)CN(c2ccccn2)CCO3)nc1", "reported-measurement": -5.77}
{"compound": "Cc1cnn(CC2CCCCN2C(=O)c2cc(C(N)=O)cs2)c1 (configuration not stated)", "reported-measurement": 28.2}
{"compound": "Cc1ccc(CN2CCC(O)(Cn3ccc4ncccc43)CC2)o1", "reported-measurement": -0.742}
{"compound": "COCCN1CCN(S(C)(=O)=O)Cc2ccc(C)nc21", "reported-measurement": -2.02}

----------
cytotoxicity at 70.5 h by entry:
# test-method-notes: Human HepG2 cell viability assay in 384 well format
# Type: toxicity, cell-based
# Parameters: dose 125 nL, time 70.5 hour; concentration not given beside the values
# settings: HepG2 cells, read-out: Inhibition

{"molecule": "CCNC(=O)CCC(=O)Nc1ccc2nn(C(C)C)cc2c1", "cytotoxicity at 70.5 h, %": 18.4}
{"molecule": "O=C(O)c1ccn(-c2ccccc2NC(=O)c2ccccc2Cl)n1", "cytotoxicity at 70.5 h, %": -3.53}
{"molecule": "CCCc1nnc(NC(=O)NC(CCO)c2cccs2)s1 (stereo not drawn)", "cytotoxicity at 70.5 h, %": -3.88}
{"molecule": "COCC(=O)NC1(c2cccc(C(F)(F)F)c2)CCC1", "cytotoxicity at 70.5 h, %": -14.5}
{"molecule": "COc1cc(CNCCc2cnn(C)c2)cc2c1OCCO2", "cytotoxicity at 70.5 h, %": -12.1}
{"molecule": "Cc1oncc1C(=O)N[C@@H]1CN(C2CCC2)C[C@@H]2CCCO[C@@H]21", "cytotoxicity at 70.5 h, %": -0.67}
{"molecule": "Cc1c[nH]c(CN2CC[C@@]3(O)CCN(C(=O)C4CCC4)C[C@H]3C2)n1", "cytotoxicity at 70.5 h, %": -1.74}
{"molecule": "COc1ccc(OC)c(-n2cnnc2CN)c1", "cytotoxicity at 70.5 h, %": -2.21}
{"molecule": "Cc1cc(CNCC2(O)CCCN(CCCc3ccccc3)C2=O)n[nH]1 (stereo not drawn)", "cytotoxicity at 70.5 h, %": -5.17}
{"molecule": "CS(=O)(=O)c1snnc1C1CCN(Cc2ccc3nccnc3c2)CC1", "cytotoxicity at 70.5 h, %": -5.73}
{"molecule": "COCCN(C)C[C@H]1C[C@H](CO)CN(C(=O)c2ccc(=O)n(C)c2)C1", "cytotoxicity at 70.5 h, %": -3.23}
{"molecule": "O=C(NCc1cccnc1N1CCCCC1)c1ccc2c(c1)OCO2", "cytotoxicity at 70.5 h, %": -18.5}
{"molecule": "Cc1cnc(N2CCc3c(c(COc4cncnc4)nn3C)C2)nc1", "cytotoxicity at 70.5 h, %": -6.03}
{"molecule": "Cn1nccc1C1CCN(Cc2cnn(-c3ccccc3)n2)CC1", "cytotoxicity at 70.5 h, %": 20.8}
{"molecule": "Cc1[nH]c(=O)c(C#N)cc1C(=O)N1C[C@@H](CN2CCCC2)C[C@H](CO)C1", "cytotoxicity at 70.5 h, %": -7.24}
{"molecule": "COCC(O)CN(C)C(=O)NCc1ccc(S(C)(=O)=O)cc1 (stereo not drawn)", "cytotoxicity at 70.5 h, %": -106}
{"molecule": "COc1c(CNC2CCCc3ccccc32)c(C(C)C)nn1C (stereo not drawn)", "cytotoxicity at 70.5 h, %": 9.34}
{"molecule": "CS(=O)(=O)N1C[C@@H]2COC[C@]2(C(=O)NCCc2cccs2)C1", "cytotoxicity at 70.5 h, %": -7.21}
